System: CP70
Run description: Anti-cancer activity, ovarian CP70 (MTT)
Type: cell-based
Condition context: 5 days, Geometric Mean ± SD (Log-normal Distribution)
Reported property: IC50

Fill in IC50 for record Cc1cc(O)cc2c1C=C(c1ccc(O)cc1)C(C)O2 (stereo not shown)
31.1 µM

###

Tested on: panel of normal, non-transformed cells
Run description: Toxicity to normal cells, overall statement (NFF and RAW 264.7)
Assay type: cell-based
Condition context: maximum concentration examined 150 μM
Reported property: toxicity in the tests performed

> print(dat)
                                   molecule  recorded.result
1  Cc1c(O)ccc2c1OC(C)C(c1ccc(O)cc1)=C2 (centres unmarked)      no toxicity
2  CC1Oc2cc(O)ccc2CC1c1ccc(O)cc1 (centres unmarked)      no toxicity

###

System: various cell lines representative of different cancer indications
Run description: Anti-cancer activity, summary over several cell lines
Assay type: cell-based
Condition context: read-out: IC50 range against all cell lines tested
Reported property: IC50

Provide the reported IC50 (system: various cell lines representative of different cancer indications) for C=CCC1Oc2cc(O)ccc2C=C1c1ccc(O)cc1 (stereo not shown)
3 to 10 µM

###

Recorded IC50, one value per entry.
Test system: various cell lines representative of different cancer indications
Run description: Anti-cancer activity, summary over several cell lines
Type: cell-based
Condition context: read-out: IC50 range against MDA-MB-468 and PC-3 cell lines

Consider the reported IC50 for these molecules:
> print(dat)
                                   molecule  recorded.result
1  CCC1Oc2cc(O)ccc2C=C1c1ccc(O)cc1 (centres unmarked)       2 to 29 µM
2  CC1Oc2cc(O)ccc2C=C1c1cccc(O)c1 (centres unmarked)      14 to 32 µM
3  Cc1c(O)ccc2c1OC(C)C(c1ccc(O)cc1)=C2 (centres unmarked)       2 to 29 µM
4  Cc1cc(O)cc2c1C=C(c1ccc(O)cc1)C(C)O2 (centres unmarked)      14 to 32 µM

Fill in IC50 for record CCC1Oc2cc(O)ccc2CC1c1ccc(O)cc1 (centres unmarked)
2 to 29 µM
